Source listed as patent US20230151091A1.

# TARGET: T1, mECD: full-length extracellular region of mouse MuSK (E22 to T494) with C-terminal Avi- and His6-tags (mouse, UniProt Q61006 22-494, biotinylated in vitro using the BirA enzyme)
# T1 construct: range 22-494; also called mouse ECD; not shown: Avi- and His6-tags
# T1 sequence (looked up): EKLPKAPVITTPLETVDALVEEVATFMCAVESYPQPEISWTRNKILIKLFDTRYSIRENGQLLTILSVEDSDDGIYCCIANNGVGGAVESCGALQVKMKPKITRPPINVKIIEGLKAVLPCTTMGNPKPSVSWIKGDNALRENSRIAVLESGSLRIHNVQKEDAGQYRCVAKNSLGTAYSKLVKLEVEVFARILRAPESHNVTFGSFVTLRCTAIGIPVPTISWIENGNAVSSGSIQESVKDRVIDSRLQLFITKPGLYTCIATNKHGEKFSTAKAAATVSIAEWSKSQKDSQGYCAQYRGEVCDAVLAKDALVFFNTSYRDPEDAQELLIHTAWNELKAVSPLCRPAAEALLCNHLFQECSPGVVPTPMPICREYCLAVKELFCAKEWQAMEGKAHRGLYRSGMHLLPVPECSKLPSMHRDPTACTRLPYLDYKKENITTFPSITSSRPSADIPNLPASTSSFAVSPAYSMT
# RUN_DESCRIPTION: bead-binding assay, Fab format: biotinylated antigen on streptavidin beads, flow cytometry, 1:1 fit; average ± s.d., n=3
pKd: −log10 of the molar value.
ENDPOINT_NAME: pKd

BINDER | OBSERVED_MEASUREMENT
X17 Fab (Fab, V domains shown, Fab format) VH: EVQLVESGGGLVQPGGSLRLSCAASGFTISYSSIHWVRQAPGKGLEWVASIYSSSGSTYYADSVKGRFTISADTSKNTAYLQMNSLRAEDTAVYYCARGDHGYYVFGYLGMDYWGQGTLVTVSS VL: DIQMTQSPSSLSASVGDRVTITCRASQSVSSAVAWYQQKPGKAPKLLIYSASSLYSGVPSRFSGSRSGTDFTLTISSLQPEDFATYYCQQSYKPGALITFGQGTKVEIK | 9.20
X8 Fab (Fab, V domains shown, also called Fab Clone X8) VH: EVQLVESGGGLVQPGGSLRLSCAASGFTVSSSSIHWVRQAPGKGLEWVASISSSSGSTSYADSVKGRFTISADTSKNTAYLQMNSLRAEDTAVYYCARSWSYHPWYYHVGWYTGLDYWGQGTLVTVSS VL: DIQMTQSPSSLSASVGDRVTITCRASQSVSSAVAWYQQKPGKAPKLLIYSASSLYSGVPSRFSGSRSGTDFTLTISSLQPEDFATYYCQQSSSSLITFGQGTKVEIK | 7.36
X13 Fab (Fab, V domains shown, also called Fab Clone X13) VH: EVQLVESGGGLVQPGGSLRLSCAASGFTISSSSIHWVRQAPGKGLEWVASISSSSGSTSYADSVKGRFTISADTSKNTAYLQMNSLRAEDTAVYYCARSSEHWYTIGYYGIDYWGQGTLVTVSS VL: DIQMTQSPSSLSASVGDRVTITCRASQSVSSAVAWYQQKPGKAPKLLIYSASSLYSGVPSRFSGSRSGTDFTLTISSLQPEDFATYYCQQSYGSFSLITFGQGTKVEIK | 8.62
X1 Fab (Fab, V domains shown, m52 is the same Fab tetramerized with streptavidin; also called Fab Clone X1 (monovalent Fab format)) VH: EVQLVESGGGLVQPGGSLRLSCAASGFTFSSSSIHWVRQAPGKGLEWVASISSSSGSTSYADSVKGRFTISADTSKNTAYLQMNSLRAEDTAVYYCARKYWSQYYWAHYYGGLDYWGQGTLVTVSS VL: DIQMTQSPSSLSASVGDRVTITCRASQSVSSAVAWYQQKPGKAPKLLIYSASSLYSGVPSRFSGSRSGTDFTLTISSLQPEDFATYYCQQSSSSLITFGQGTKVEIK | 8.87
X6 Fab (Fab, V domains shown, also called Fab Clone X6) VH: EVQLVESGGGLVQPGGSLRLSCAASGFTFSSSSIHWVRQAPGKGLEWVASISSYSGYTYYADSVKGRFTISADTSKNTAYLQMNSLRAEDTAVYYCARTYGSYYVSSYTGMDYWGQGTLVTVSS VL: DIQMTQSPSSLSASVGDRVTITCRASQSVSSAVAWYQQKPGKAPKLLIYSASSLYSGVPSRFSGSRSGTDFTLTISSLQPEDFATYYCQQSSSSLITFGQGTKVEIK | 9.23
X3 Fab (Fab, V domains shown, Fab format) VH: EVQLVESGGGLVQPGGSLRLSCAASGFTISSSSIHWVRQAPGKGLEWVASISSSSGYTYYADSVKGRFTISADTSKNTAYLQMNSLRAEDTAVYYCARSWYEMWMSGYFGFDYWGQGTLVTVSS VL: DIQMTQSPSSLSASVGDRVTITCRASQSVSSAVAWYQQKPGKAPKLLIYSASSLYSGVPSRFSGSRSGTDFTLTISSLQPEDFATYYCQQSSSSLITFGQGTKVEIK | 9.40
X7 Fab (Fab, V domains shown, also called Fab Clone X7) VH: EVQLVESGGGLVQPGGSLRLSCAASGFTLYSSSIHWVRQAPGKGLEWVASISSSYSSTYYADSVKGRFTISADTSKNTAYLQMNSLRAEDTAVYYCARLAGLYHYPGYLGLDYWGQGTLVTVSS VL: DIQMTQSPSSLSASVGDRVTITCRASQSVSSAVAWYQQKPGKAPKLLIYSASSLYSGVPSRFSGSRSGTDFTLTISSLQPEDFATYYCQQSSRSSLLTFGQGTKVEIK | 7.79
X2 Fab (Fab, V domains shown, Fab format) VH: EVQLVESGGGLVQPGGSLRLSCAASGFTVSSSSIHWVRQAPGKGLEWVASISSSYGSTSYADSVKGRFTISADTSKNTAYLQMNSLRAEDTAVYYCARSEGDRYVSGYMGMDYWGQGTLVTVSS VL: DIQMTQSPSSLSASVGDRVTITCRASQSVSSAVAWYQQKPGKAPKLLIYSASSLYSGVPSRFSGSRSGTDFTLTISSLQPEDFATYYCQQSGVWLITFGQGTKVEIK | 9.15
